Ref: paper PMC9943647

- Test target: OBD E4A (Streptococcus plasmid pMV158, UniProt P13921 1-131, E4A)
- Assay details: EMSA; EMSA: 20 mM Tris-HCl pH 8.0, 5 mM DTT, 300 mM NaCl, 20 nM DNA, 20 min 25 C; footprinting same buffer; SPR: 10 mM HEPES pH 7.4, 150 mM NaCl, 3 mM EDTA, 0.005% P20
- Assay conditions: protein: recombinant; label: 5'-Cy5 (top); blunt
Measurement type: Kd (nM)

>>> value_reported("1DDR (dsDNA) DNA 1: AATCTCGGCGACTTTTTAGA DNA 2: TCTAAAAAGTCGCCGAGATT")
600
